experiment: soluble fraction after stress (log2 fold change); higher = more stays soluble; pooled small domains, quantitative proteomics
condition-info: stress: 50 degC
Note to self: values exactly at -0.6 are Yes. So soluble fraction (log2) at or above -0.6 is Yes, below is No.

Answered cases to consult:
HMLLPGEELRVMIIQEGKEYGQGVGYLDDGTMVVVEDGQRALNRTENVVVTKVLQTTAGRMIFAK: No
HMGGREEAGTDIARLLGYINDIHGEELIAKLEYYQKMLGSENFAVLMSRLPDGQKKELREQNLYSEYV: Yes
HMNLGNLLKIYRKNSLLTQQQVADALNINRTTYTYYETGKTEPSIDTLHKLIKIFGITYDDLL: No
HMANILKHKNKDGVITSYTIRVYHGYDEAGKRLRPYTMNYKPAPNMTARQIEKELNRQAVQFEEQIKNGYA: No

QUERY: State whether the measured soluble fraction (log2) reaches -0.6, counting equality as reaching it, for "HMEAGLRMPEQLTAFSALALLQKVRDSGPLTDAQKEQLDADVLRIEASHFGKADREALELEEILKQWLSRV"
RESULT: Yes

QUERY: What about this sequence? "HMIGRRLKVARASAGLSLRELAARMDGVVTPQAIGKYERNEDMPGSRALMALASALGVSEGYLLSD"
RESULT: No

QUERY: What about this sequence? "HMQDFEQNLFDGKSIYDRMLSKFSLHNVDVKQLVAHFKRKDTEQFFADIGRGLITSAQMLGFLQT"
RESULT: Yes

QUERY: What about this sequence? "HMNITHEINVKSKSKIDFLENNKNLAQFFLTKNPNQFNYNLVFSDKSELNIIKEKIESHKDIEDIDIRYG"
RESULT: Yes

* * *

experiment: soluble fraction after stress (log2 fold change); higher = more stays soluble; pooled small domains, quantitative proteomics
condition-info: stress: 50 degC
Classification by soluble fraction (log2) follows these ranges: Low = under -0.4, Mid = from -0.4 up to -0.003, High = -0.003 and over

HMENVVESIYNKMVESITNGQWAAGSKIPTENELAKTYQVSRSSVRQAISRLKALGLLESRQGSGTVIKK: High
HMGKRKDFTYTGNYFSEYKNQTFPSLSSFLKLVGKYENYGTIKRRVRFGWDIDEAILRENIN: Low
HMQISDSASVKTVVAEAIAANPKAVADFMNGKDTATRYLVGQVMKITKGQAKPELVNQLVLESLAELKEK: High
HMESKPLTPSEIKKLRMDANMTQAGLAEVLGMTVKAVEAWESGRNIPSGAADKILRVMQKHPSVIGMMQS: High

QUERY: Into which bin does this sequence go? "HMGKKGPELSENEKSIFSILSKSGSMDLTTLKEASGLSNKQWDKGIKGLGKHGLTKVIKTEDALLVEVV"
RESULT: High

QUERY: What about this sequence? "HMRMLTKRRQDLLLELLEERGSITVSEVKDMLDASESTIRRDITALDEEGKLVKVFGGAVAAR"
RESULT: Mid

QUERY: What about this sequence? "HMERMTSTEILTRDFLTTNSKIVKKSTIEELSEIIHVSPATIIRTVKKMGYSGFSEYKNELINQ"
RESULT: Mid

QUERY: What about this sequence? "HMDFSERLARAMSLAGYTQGRLAKEVGMAQSSVNKLLNGANGSRKTVEIASVLGVRPEWLSTGAGEML"
RESULT: Mid

QUERY: What about this sequence? "HMRTLRENIMDYFKQQTIIQKSSVILLPMSKRQLADYFGVQRPSLFRELKKLKEEGIIEINNRTITIK"
RESULT: Low

QUERY: What about this sequence? "HMKEQLITVYVSGAVARPGLYELPAGIRAQEAVEAAGGFTEAANHEKVNLAKKLKDGSQVNVPALK"
RESULT: Mid

QUERY: What about this sequence? "HMGDDVRKNILDVLSKFERVDITDLDSLELVRFYLEIEDIFDIEIKENDFYRLKSVDSIVDYIRNKSFF"
RESULT: Low

QUERY: What about this sequence? "HMFETLVLALAQAWPAERGPVEALQFEGGRLSLQRSGFADEQVEALRQRLSSEGWTLQTEQGRLILNKAG"
RESULT: Low
